# measurement.description: Half life in Sprague-Dawley rat at 1 mg/kg, iv
# Type: ADME, organism-based
# assay.context: in vivo
measure: half-life (h)

| substance.smiles | unit.label | experimental.result |
| --- | --- | --- |
| Cc1ccc(C(=O)N2CCC(Oc3cc(NC(=O)c4ccc(CN5CCN(C)CC5)c(C(F)(F)F)c4)ccc3C)CC2)cn1 | h | 2.47 |

###

Measured GI50 at 72 h, listed per entry for reference.
# measurement.description: Antiproliferative activity against CHO cells measured after 72 hrs by CellTiter-Glo or CCK8 assay
# Type: cell-based, Cricetulus griseus
# assay.context: chinese hamster

| substance.smiles | GI50 at 72 h |
| --- | --- |
| Cc1ccc(C(=O)N2CCC(Oc3cc(NC(=O)c4ccc(CN5CCN(C)CC5)c(C(F)(F)F)c4)ccc3C)CC2)cn1 | > 10 µM |
| Cc1ccc(NC(=O)c2ccc(CN3CCN(C)CC3)cc2)cc1Nc1nccc(-c2cccnc2)n1 | > 10 µM |

Origin of the recorded values: ChEMBL document CHEMBL3877303
